target under test: Cannabinoid receptor 2 (Homo sapiens, UniProt P34972)
Sequence (P34972 whole entry): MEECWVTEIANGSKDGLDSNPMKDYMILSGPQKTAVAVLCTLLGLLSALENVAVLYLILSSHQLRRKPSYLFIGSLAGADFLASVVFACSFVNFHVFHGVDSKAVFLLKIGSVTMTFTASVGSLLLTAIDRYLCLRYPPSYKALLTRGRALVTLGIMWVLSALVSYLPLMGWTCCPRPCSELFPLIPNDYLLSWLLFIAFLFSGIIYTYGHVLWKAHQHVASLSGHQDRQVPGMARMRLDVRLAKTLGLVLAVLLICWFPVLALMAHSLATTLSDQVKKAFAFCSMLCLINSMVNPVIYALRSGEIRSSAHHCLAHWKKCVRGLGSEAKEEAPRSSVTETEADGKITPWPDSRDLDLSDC
experiment notes: Displacement of [3H]-CP-55940 from human recombinant CB2 receptor expressed in HEK293 cells
Type: cell-based
pKi: −log10 of the molar value.
value kind: pKi

The following molecules each have a reported value; give each one's pKi.
1. COc1ccc(/C=C/C(=O)CCC(=O)N2CCCCC2)cc1OC
2. C[C@H](CO)NC(=O)CCC(=O)/C=C/c1ccc2ccccc2c1
3. O=C(/C=C/c1ccc2ccccc2c1)CCC(=O)NCCO
4. O=C(/C=C/c1ccc2ccccc2c1)CCCC(=O)N1CCCCC1
5. O=C(/C=C/c1ccc(-c2ccccc2)cc1)CCC(=O)NCCO
6. COc1ccc(/C=C/C(=O)CCC(=O)NCCO)cc1OC

**A:**
< 5.00
< 5.00
5.99
< 5.00
< 5.00
< 5.00

Provide pKi values for the following items, in order.
1. O=C(CCC(=O)NCCO)CCc1ccc(-c2ccccc2)cc1
2. O=C(/C=C/c1ccc2ccccc2c1)CCCC(=O)NC1CC1
3. O=C(/C=C/c1ccc2ccccc2c1)CCC(=O)N(CCO)CCO
4. O=C(/C=C/c1ccc2ccccc2c1)CCCC(=O)NCCO
5. CCOC(=O)CNC(=O)CCCC(=O)/C=C/c1ccc2ccccc2c1
6. O=C(O)CCC(=O)/C=C/c1ccc2ccccc2c1

**A:**
5.65
5.69
< 5.00
5.99
< 5.00
< 5.00

Batch request: pKi for each of the following molecules.
1. O=C(CCC(=O)N1CCOCC1)c1ccc(-c2ccccc2)cc1
2. CCOC(=O)CNC(=O)CCC(=O)/C=C/c1ccc2ccccc2c1
3. O=C(/C=C/c1ccc2ccccc2c1)CCC(=O)NC1CC1
4. COc1ccc(/C=C/C(=O)CCC(=O)Nc2ccc(O)cc2)cc1
5. O=C(/C=C/c1ccc2ccccc2c1)CCC(=O)Nc1ccc(O)cc1
6. C[C@@H](CO)NC(=O)CCCC(=O)/C=C/c1ccc2ccccc2c1
7. O=C(/C=C/c1ccc2ccccc2c1)CCC(=O)N1CCCCC1
8. O=C(O)CCCC(=O)/C=C/c1ccc2ccccc2c1

**A:**
1. < 5.00
2. 5.60
3. < 5.00
4. < 5.00
5. < 5.00
6. < 5.00
7. < 5.00
8. < 5.00

====

target under test: Cannabinoid receptor 2 (Homo sapiens, UniProt P34972)
experiment notes: Displacement of [3H]-CP-55940 from human recombinant CB2 receptor expressed in HEK293 cells at 10 uM
Type: cell-based
Give Activity for every item shown.
Numbers only, in %.

Illustrative cases are given below, each with its answer.
smiles string	units label	numeric readout
O=C(O)CCC(=O)/C=C/c1ccc2ccccc2c1	%	13.7
COc1ccc(/C=C/C(=O)CCC(=O)N2CCCCC2)cc1OC	%	50
CCOC(=O)CNC(=O)CCCC(=O)/C=C/c1ccc2ccccc2c1	%	41.7
O=C(/C=C/c1ccc2ccccc2c1)CCC(=O)NC1CC1	%	35.6

Batch request: Activity for each of the following molecules.
1. O=C(CCC(=O)N1CCOCC1)c1ccc(-c2ccccc2)cc1
2. O=C(CCC(=O)NCCO)CCc1ccc(-c2ccccc2)cc1

**A:**
14.9
53

====

Species on record: Homo sapiens
experiment notes: Selectivity index, ratio of Ki for human recombinant CB1 receptor to Ki for human recombinant CB2 receptor
value kind: Ratio Ki

Some entries whose results are on file:
smiles string	result
O=C(/C=C/c1ccc2ccccc2c1)CCCC(=O)NC1CC1	> 4.9
CCOC(=O)CNC(=O)CCC(=O)/C=C/c1ccc2ccccc2c1	> 4

Record Ratio Ki for all entries; do not skip any.
1. O=C(/C=C/c1ccc2ccccc2c1)CCCC(=O)NCCO
2. O=C(/C=C/c1ccc2ccccc2c1)CCC(=O)NCCO
3. O=C(CCC(=O)NCCO)CCc1ccc(-c2ccccc2)cc1

**A:**
> 9.71
> 4.41
> 4.44

====

target under test: Cannabinoid receptor 1 (Homo sapiens)
Sequence (P21554 whole entry): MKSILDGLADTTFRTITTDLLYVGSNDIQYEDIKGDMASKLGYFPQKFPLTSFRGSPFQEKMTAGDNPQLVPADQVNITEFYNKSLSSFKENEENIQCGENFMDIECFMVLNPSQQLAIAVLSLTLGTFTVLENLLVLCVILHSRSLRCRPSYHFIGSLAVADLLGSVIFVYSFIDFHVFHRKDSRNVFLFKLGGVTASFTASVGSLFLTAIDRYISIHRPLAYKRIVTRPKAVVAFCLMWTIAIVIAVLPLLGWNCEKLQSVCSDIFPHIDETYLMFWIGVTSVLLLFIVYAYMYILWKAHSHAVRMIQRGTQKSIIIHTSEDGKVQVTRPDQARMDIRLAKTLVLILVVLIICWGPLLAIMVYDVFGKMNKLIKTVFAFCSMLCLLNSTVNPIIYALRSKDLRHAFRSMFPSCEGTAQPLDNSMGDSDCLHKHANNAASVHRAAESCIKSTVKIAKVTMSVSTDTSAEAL
experiment notes: Displacement of [3H]-CP-55940 from human recombinant CB1 receptor expressed in HEK293 cells at 10 uM
Type: cell-based
value kind: Activity (%)
Answers are plain numbers, in %.

Some solved entries appear below for comparison.
smiles string	units label	Activity
O=C(CCC(=O)N1CCOCC1)c1ccc(-c2ccccc2)cc1	%	12.2
CCOC(=O)CNC(=O)CCC(=O)/C=C/c1ccc2ccccc2c1	%	5.73
O=C(/C=C/c1ccc2ccccc2c1)CCCC(=O)NC1CC1	%	15.3
O=C(CCC(=O)NCCO)CCc1ccc(-c2ccccc2)cc1	%	10.9
O=C(O)CCC(=O)/C=C/c1ccc2ccccc2c1	%	11.8

Provide each entry's Activity from the list below.
1. O=C(/C=C/c1ccc2ccccc2c1)CCC(=O)N(CCO)CCO
2. O=C(O)CCCC(=O)/C=C/c1ccc2ccccc2c1

**A:**
1: 1.81; 2: 21.5

# per-item lookup of Activity; items listed below
1. O=C(/C=C/c1ccc(-c2ccccc2)cc1)CCC(=O)NCCO
2. C[C@H](CO)NC(=O)CCC(=O)/C=C/c1ccc2ccccc2c1
3. O=C(/C=C/c1ccc2ccccc2c1)CCC(=O)NCCO
4. CCOC(=O)CNC(=O)CCCC(=O)/C=C/c1ccc2ccccc2c1
5. O=C(/C=C/c1ccc2ccccc2c1)CCCC(=O)N1CCCCC1

**A:**
1: 5.25; 2: 2.48; 3: 0; 4: 41.5; 5: 34

// for each molecule in input: emit Activity
1. O=C(/C=C/c1ccc2ccccc2c1)CCC(=O)NC1CC1
2. O=C(/C=C/c1ccc2ccccc2c1)CCCC(=O)NCCO

**A:**
3.25
4.58

====

target under test: Cannabinoid receptor 2 (Homo sapiens)
experiment notes: Displacement of [3H]-CP-55940 from human recombinant CB2 receptor expressed in HEK293 cells
value kind: IC50

# annotated cases, reported IC50 shown
smiles string	target under test	IC50
COc1ccc(/C=C/C(=O)CCC(=O)NCCO)cc1OC	Cannabinoid receptor 2 (Homo sapiens)	> 10 µM
CCOC(=O)CNC(=O)CCCC(=O)/C=C/c1ccc2ccccc2c1	Cannabinoid receptor 2 (Homo sapiens)	> 10 µM
O=C(/C=C/c1ccc2ccccc2c1)CCC(=O)NC1CC1	Cannabinoid receptor 2 (Homo sapiens)	> 10 µM
COc1ccc(/C=C/C(=O)CCC(=O)N2CCCCC2)cc1OC	Cannabinoid receptor 2 (Homo sapiens)	> 10 µM

Provide the reported IC50 of each entry below, same order.
1. C[C@H](CO)NC(=O)CCC(=O)/C=C/c1ccc2ccccc2c1
2. C[C@@H](CO)NC(=O)CCCC(=O)/C=C/c1ccc2ccccc2c1

**A:**
["> 10 µM", "> 10 µM"]

Return reported IC50 values for all items listed beneath this line.
1. O=C(/C=C/c1ccc2ccccc2c1)CCC(=O)NCCO
2. O=C(/C=C/c1ccc2ccccc2c1)CCC(=O)N1CCCCC1
3. O=C(O)CCC(=O)/C=C/c1ccc2ccccc2c1

**A:**
["1 µM", "> 10 µM", "> 10 µM"]

Give IC50 for each of the items listed below.
1. CCOC(=O)CNC(=O)CCC(=O)/C=C/c1ccc2ccccc2c1
2. O=C(O)CCCC(=O)/C=C/c1ccc2ccccc2c1
3. O=C(/C=C/c1ccc2ccccc2c1)CCC(=O)N(CCO)CCO
4. COc1ccc(/C=C/C(=O)CCC(=O)Nc2ccc(O)cc2)cc1
5. O=C(CCC(=O)N1CCOCC1)c1ccc(-c2ccccc2)cc1
6. O=C(/C=C/c1ccc2ccccc2c1)CCC(=O)Nc1ccc(O)cc1
7. O=C(CCC(=O)NCCO)CCc1ccc(-c2ccccc2)cc1
8. O=C(/C=C/c1ccc2ccccc2c1)CCCC(=O)NC1CC1

**A:**
9.82 µM
> 10 µM
> 10 µM
> 10 µM
> 10 µM
> 10 µM
8.85 µM
8.02 µM

Hi there! I need IC50 for each item below, if you can.
1. O=C(/C=C/c1ccc(-c2ccccc2)cc1)CCC(=O)NCCO
2. O=C(/C=C/c1ccc2ccccc2c1)CCCC(=O)N1CCCCC1
3. O=C(/C=C/c1ccc2ccccc2c1)CCCC(=O)NCCO

**A:**
1. > 10 µM
2. > 10 µM
3. 4.08 µM

====

target under test: Fatty-acid amide hydrolase 1 (Rattus norvegicus)
experiment notes: Inhibition of FAAH-mediated [14C]anandamide hydrolysis in rat brain membrane assessed as [14C]-ethanolamine production up to 50 uM after 30 mins by scintillation counting
Type: cell membranes
Activity calls are given as the source filed them. The rule behind the calls is not given here.
value kind: inhibition

smiles string	value kind	result
COc1ccc(/C=C/C(=O)CCC(=O)Nc2ccc(O)cc2)cc1	inhibition	inactive
COc1ccc(/C=C/C(=O)CCC(=O)N2CCCCC2)cc1OC	inhibition	inactive
O=C(/C=C/c1ccc2ccccc2c1)CCC(=O)NC1CC1	inhibition	inactive

====

target under test: Cannabinoid receptor 2 (Homo sapiens)
experiment notes: Displacement of [3H]-CP-55940 from human recombinant CB2 receptor expressed in HEK293 cells at 10 uM
Type: cell-based
value kind: Activity (%)
One number for each entry, in %.

Example molecules with recorded Activity:
smiles string	target under test	numeric readout
O=C(/C=C/c1ccc2ccccc2c1)CCCC(=O)N1CCCCC1	Cannabinoid receptor 2 (Homo sapiens)	36.8
O=C(/C=C/c1ccc2ccccc2c1)CCCC(=O)NC1CC1	Cannabinoid receptor 2 (Homo sapiens)	56.7
C[C@H](CO)NC(=O)CCC(=O)/C=C/c1ccc2ccccc2c1	Cannabinoid receptor 2 (Homo sapiens)	38.3
O=C(/C=C/c1ccc(-c2ccccc2)cc1)CCC(=O)NCCO	Cannabinoid receptor 2 (Homo sapiens)	46.1
O=C(/C=C/c1ccc2ccccc2c1)CCC(=O)NCCO	Cannabinoid receptor 2 (Homo sapiens)	56.5

For each listed entry, give its Activity.
1. O=C(/C=C/c1ccc2ccccc2c1)CCCC(=O)NCCO
2. O=C(/C=C/c1ccc2ccccc2c1)CCC(=O)N(CCO)CCO
3. CCOC(=O)CNC(=O)CCC(=O)/C=C/c1ccc2ccccc2c1
4. C[C@@H](CO)NC(=O)CCCC(=O)/C=C/c1ccc2ccccc2c1
5. O=C(O)CCCC(=O)/C=C/c1ccc2ccccc2c1

**A:**
1: 72; 2: 27.3; 3: 54.6; 4: 37.7; 5: 23.4
